Values from ChEMBL document CHEMBL1125286

biological target: Serotonin 3 (5-HT3) receptor (Rattus norvegicus) (UniProt P35563+Q9JJ16); experiment: 5-hydroxytryptamine 3 receptor antagonistic activity was measured by the inhibition of 5H+ T-induced bradycardia after iv administration of 3 ug/kg dose in urethane-anesthetized rats; assay type: functional, organism-based
Measured inhibition accompanies every entry in the list below.
Provide only the numeric value, understood in %.

Solved entries (count: 3):
CN1C2CCC1CC(NC(=O)c1cc(Br)cc3c1OC(C)(C)C3)C2 (centres undefined)    15.9
CN1C2CCC1CC(NC(=O)c1cccc3c1OC(C)(C)C3)C2 (centres undefined)    13.7
Cc1cc2c(c(C(=O)NC3CC4CCC(C3)N4C)c1)OC(C)(C)C2 (centres undefined)    11.2

For CC1Oc2c(C(=O)OC3CC4CCC(C3)N4C)cccc2C1C (stereo in doubt; 27) , what is its reported inhibition?
35.6

###

molecular target: Serotonin 3 (5-HT3) receptor (Rattus norvegicus) (UniProt P35563+Q9JJ16); experiment: Compound was tested for the inhibition of 5-HT-induced bradycardia after peroral administration in urethane-anesthetized rats
READOUT_TYPE: ED50 (mg/kg)
Provide only the numeric value, understood in mg/kg.

CC1Cc2cc(Cl)cc(C(=O)NC3CC4CCC(C3)N4C)c2O1 (configuration not stated)    0.063
Cc1nccn1CC1CCc2c(c3ccccc3n2C)C1=O (configuration not stated)    0.316
CN1[C@@H]2CC[C@H]1C[C@@H](OC(=O)c1cc(Cl)cc3c1OC(C)(C)C3)C2    0.0088
Cc1cc2c(c(C(=O)OC3CC4CCC(C3)N4C)c1)OC(C)C2 (configuration not stated)    5.17
CN1[C@@H]2CC[C@H]1C[C@@H](NC(=O)c1cc(Cl)cc3c1OC(C)(C)C3)C2 (stereo in doubt)    0.0092

Any idea what ED50 came out for CC1Cc2cc(Cl)cc(C(=O)OC3CC4CCC(C3)N4C)c2O1 (configuration not stated) on Serotonin 3 (5-HT3) receptor (Rattus norvegicus) (UniProt P35563+Q9JJ16)?
0.179

Any idea what ED50 came out for `CN1[C@@H]2CC[C@H]1C[C@@H](OC(=O)c1c[nH]c3ccccc13)C2` on Serotonin 3 (5-HT3) receptor (Rattus norvegicus) (UniProt P35563+Q9JJ16)?
0.127

###

Measured inhibition accompanies every entry in the list below.
molecular target: Serotonin 3 (5-HT3) receptor (Rattus norvegicus) (UniProt P35563+Q9JJ16); assay: Compound was tested for the inhibition of 5-HT-induced bradycardia after intravenous administration of 1 ug/kg dose in urethane-anesthetized rats; assay type: functional, organism-based
Provide only the numeric value, understood in %.

For `CN1[C@@H]2CC[C@H]1C[C@@H](OC(=O)c1c[nH]c3ccccc13)C2` , what is its reported inhibition?
20.1

For Cc1cc2c(c(C(=O)OC3CC4CCC(C3)N4C)c1)OC(C)C2 (centres undefined) , what is its reported inhibition?
3.3

For CN1[C@@H]2CC[C@H]1C[C@@H](NC(=O)c1cc(Cl)cc3c1OC(C)(C)C3)C2 (stereo in doubt) , what is its reported inhibition?
66.2

For CC1Cc2cc(Cl)cc(C(=O)NC3CC4CCC(C3)N4C)c2O1 (centres undefined) , what is its reported inhibition?
58.1

###

system: Serotonin 3 receptor (Cavia porcellus); experiment: In vitro binding affinity was measured for 5-hydroxytryptamine 3 receptor in the guinea pig ileum.
Measured -Log KB accompanies every entry in the list below.

Solved entries (count: 4):
CC1Cc2cc(Cl)cc(C(=O)NC3CC4CCC(C3)N4C)c2O1 (stereo not given)    8.27
CN1[C@@H]2CC[C@H]1C[C@@H](OC(=O)c1cc(Cl)cc3c1OC(C)(C)C3)C2    7.92
CN1[C@@H]2CC[C@H]1C[C@@H](NC(=O)c1cc(Cl)cc3c1OC(C)(C)C3)C2 (stereo in doubt)    8.78
CC1Cc2cc(Cl)cc(C(=O)OC3CC4CCC(C3)N4C)c2O1 (stereo not given)    7.88

For Cc1cc2c(c(C(=O)OC3CC4CCC(C3)N4C)c1)OC(C)C2 (stereo not given) , what is its reported -Log KB?
7.32
